Data provenance is PubChem BioAssay AID2060626.

# Test system: 168753-222-R-J1-PDC complex spheroid viability
# PROTOCOL NOTES: Anticancer human tumor 168753-222-R-J1-PDC patient-derived bladder carcinoma cell line growth inhibition [CLK]
# TEST SETTINGS: second compound 0.1 µM; first compound 0.0316 µM; hits give low values
RECORDED METRIC: viability, T/C (%)

1) CC1COCCN1c1cc(C2(S(C)(=N)=O)CC2)nc(-c2ccnc3[nH]ccc23)n1 (configuration not stated) + CNC(=O)c1ccc(Nc2nc(OC3CCCC3)c3c(-c4ccc5nc(C)oc5c4)c[nH]c3n2)c(OC)c1    101
2) CC(=O)O[C@H]1C(=O)[C@@]2(C)[C@H]([C@H](OC(=O)c3ccccc3)[C@]3(O)C[C@H](OC(=O)[C@H](O)[C@@H](NC(=O)c4ccccc4)c4ccccc4)C(C)=C1C3(C)C)[C@]1(OC(C)=O)CO[C@@H]1C[C@@H]2O + CNC(=O)c1ccc(Nc2nc(OC3CCCC3)c3c(-c4ccc5nc(C)oc5c4)c[nH]c3n2)c(OC)c1    80.8

----------
# Test system: 168753-222-R-J1-PDC complex spheroid viability
# PROTOCOL NOTES: Anticancer human tumor 168753-222-R-J1-PDC cell line growth inhibition [CLK];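 further: luminescence signal used as surrogate for viable cell amount; viability measured after seven days of drug exposure; 100% = DMSO vehicle control wells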
# TEST SETTINGS: second compound 3.16 µM; first compound 3.16 µM; hits give low values
# Source text: A high-throughput screen of multi-cell type tumor spheroids was designed to identify active combinations of […] and targeted small molecules. Complex spheroids include a stromal component modeled by human endothelial cells (HUVEC) and fibroblasts modeled by human mesenchymal stem cells (MSCs). […] Compounds. […] If the clinical Cmax for an agent had not been determined, the highest concentration tested was 10 microM. […]
# viability, T/C listing for each entry below
RECORDED METRIC: viability, T/C (%)

1. O=C(c1cc(Cc2n[nH]c(=O)c3ccccc23)ccc1F)N1CCN(C(=O)C2CC2)CC1 + CNC(=O)c1ccc(Nc2nc(OC3CCCC3)c3c(-c4ccc5nc(C)oc5c4)c[nH]c3n2)c(OC)c1    22.3
2. C=CC(=O)N1CCN(c2nc(=O)n(-c3c(C)ccnc3C(C)C)c3nc(-c4c(O)cccc4F)c(F)cc23)C(C)C1 (centres undefined) + CNC(=O)c1ccc(Nc2nc(OC3CCCC3)c3c(-c4ccc5nc(C)oc5c4)c[nH]c3n2)c(OC)c1    30.4
3. O=C(c1cc(Cc2n[nH]c(=O)c3ccccc23)ccc1F)N1CCN(C(=O)C2CC2)CC1 + CN1CCN(c2cc(C(=O)Nc3cc4cc(-c5cnn(C)c5)ccc4cn3)ccn2)CC1    0.96
4. CC1(C)CCC(CN2CCN(c3ccc(C(=O)NS(=O)(=O)c4ccc(NCC5CCOCC5)c([N+](=O)[O-])c4)c(Oc4cnc5[nH]ccc5c4)c3)CC2)=C(c2ccc(Cl)cc2)C1 + CN1CCN(c2cc(C(=O)Nc3cc4cc(-c5cnn(C)c5)ccc4cn3)ccn2)CC1    1.14
5. CC(Nc1ccc2c(c1)OCCn1cc(N3C(=O)OCC3C(F)F)nc1-2)C(N)=O (centres undefined) + CNC(=O)c1ccc(Nc2nc(OC3CCCC3)c3c(-c4ccc5nc(C)oc5c4)c[nH]c3n2)c(OC)c1    1.82
6. CC(=O)O[C@H]1C(=O)[C@@]2(C)[C@H]([C@H](OC(=O)c3ccccc3)[C@]3(O)C[C@H](OC(=O)[C@H](O)[C@@H](NC(=O)c4ccccc4)c4ccccc4)C(C)=C1C3(C)C)[C@]1(OC(C)=O)CO[C@@H]1C[C@@H]2O + CN1CCN(c2cc(C(=O)Nc3cc4cc(-c5cnn(C)c5)ccc4cn3)ccn2)CC1    0.09
7. Nc1ccccc1NC(=O)c1ccc(CNC(=O)OCc2cccnc2)cc1 + CNC(=O)c1ccc(Nc2nc(OC3CCCC3)c3c(-c4ccc5nc(C)oc5c4)c[nH]c3n2)c(OC)c1    25.7
8. COc1ccc([C@@H](O)c2cc(-c3ncnc4cc(N5CCOCC5)ccc34)c(F)cc2Cl)nn1 + CNC(=O)c1ccc(Nc2nc(OC3CCCC3)c3c(-c4ccc5nc(C)oc5c4)c[nH]c3n2)c(OC)c1    17.8
9. COC1C=CCC(C)C(C)S(=O)(=O)NC(=O)c2ccc3c(c2)N(CC2CCC21)CC1(CCCc2cc(Cl)ccc21)CO3 (centres undefined) + CN1CCN(c2cc(C(=O)Nc3cc4cc(-c5cnn(C)c5)ccc4cn3)ccn2)CC1    0.15
